IC50 overview
Target: HLA-A*0201 (HLA-A2) heavy chain refolded with β2-microglobulin
Assay: radioligand binding
Non-standard residues stand in square brackets, D forms with d. No end group written: not given here. pS = N[C@@H](COP(=O)(O)O)C(=O)O
Supply the numeric figure in nM, leaving out any unit text.

Reference set, count: 3
[in] So what's the measured IC50 for this one? GLLGSPVRA (not fully specified) [… (non-phosphorylated counterpart of GLLGpSPVRA)]
[out] 219

[in] So what's the measured IC50 for this one? KMD[pS]FLDMQL [KMDpSFLDMQL]
[out] 3.4

[in] So what's the measured IC50 for this one? RQA[pS]LSISV [RQApSLSISV]
[out] 38.5

Next binder, please.
[in] So what's the measured IC50 for this one? RQASLSISV (not fully specified) [… (non-phosphorylated counterpart of RQApSLSISV)]
[out] 284
